Biological target: T1, ZFP SBS#982 (synthetic)
T1 chain: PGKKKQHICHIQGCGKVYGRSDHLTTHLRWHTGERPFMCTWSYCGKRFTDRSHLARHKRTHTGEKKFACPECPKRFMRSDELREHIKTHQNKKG
Test: EMSA
Conditions: tags: MBP fusion
TEST_READOUT: pKd
The read-out pKd is expressed as -log10 of concentration in moles per litre.

Task item: Consider the binder CCGGGCTGG (dsDNA) DNA 1: CCGGGCTGG DNA 2: CCAGCCCGG and give its measured pKd.
Reply: 10.52

Where do the numbers come from? From patent US20030068675.
